B1: HEEH_KT_rd6_0790 (parent)
chain: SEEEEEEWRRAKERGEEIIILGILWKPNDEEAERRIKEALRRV

Variants of: B1
test: folding stability dG (cDNA display proteolysis); higher = more stable
condition.notes: PBS, room temperature
Recorded folding stability dG for the following variants
Give your result in kcal/mol as a bare value.

Examples with answers:
{"mutation.list": "I20A", "folding stability dG, kcal/mol": 0.825}
{"mutation.list": "E16L", "folding stability dG, kcal/mol": 2.28}
{"mutation.list": "R10E", "folding stability dG, kcal/mol": 1.33}
{"mutation.list": "I23A", "folding stability dG, kcal/mol": 0.977}

The recorded folding stability dG for entry N28E equals 1.84
